Overview of reported self-cleavage kobs at 640 uM GlcN6P across a group of variants:
B1: glmS ribozyme (parent)
chain: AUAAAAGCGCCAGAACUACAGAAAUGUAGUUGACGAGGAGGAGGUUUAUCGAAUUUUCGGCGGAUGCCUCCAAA

- Variants of: B1
- assay comment: self-cleavage kobs at 640 uM GlcN6P; higher = faster cleavage; RNA array
- experimental context: with glucosamine-6-phosphate
Fewer inactive variants are shown than the library holds.
outcome measure: self-cleavage kobs at 640 uM GlcN6P

>>> recorded_measurement("C16U U31C C68U")
"0.000149 s⁻¹"
>>> recorded_measurement("G41A U49C")
"< 1e-05 s⁻¹"
>>> recorded_measurement("C11U G62C")
"< 1e-05 s⁻¹"
>>> recorded_measurement("U47G C70U")
"0.00192 s⁻¹"
>>> recorded_measurement("C11G G35C")
"< 1e-05 s⁻¹"
>>> recorded_measurement("C8U U49A U69G")
"0.000871 s⁻¹"
>>> recorded_measurement("C10G G63C")
"< 1e-05 s⁻¹"
>>> recorded_measurement("U46G U49A")
"< 1e-05 s⁻¹"
>>> recorded_measurement("A12C")
"0.00858 s⁻¹"
>>> recorded_measurement("A6U G44U C61U")
"< 1e-05 s⁻¹"
>>> recorded_measurement("A12G A36U")
"< 1e-05 s⁻¹"
>>> recorded_measurement("C16G U31C")
"8.88e-05 s⁻¹"
>>> recorded_measurement("A39U A42C A53U C58U")
"< 1e-05 s⁻¹"
>>> recorded_measurement("C8A G40U")
"< 1e-05 s⁻¹"
>>> recorded_measurement("C16A G38U U47A")
"< 1e-05 s⁻¹"
>>> recorded_measurement("C11G A33C G35C G62A")
"< 1e-05 s⁻¹"
>>> recorded_measurement("C11G C34G G59A")
"< 1e-05 s⁻¹"
>>> recorded_measurement("G13A C34G C50U C67G")
"0.00142 s⁻¹"
>>> recorded_measurement("G35A C58A")
"< 1e-05 s⁻¹"
>>> recorded_measurement("U47A G60C U69C")
"0.00785 s⁻¹"
>>> recorded_measurement("A12G")
"0.000189 s⁻¹"
>>> recorded_measurement("G62C U65G")
"< 1e-05 s⁻¹"
>>> recorded_measurement("G9C A64U")
"< 1e-05 s⁻¹"
>>> recorded_measurement("C10A U55A C67G")
"0.000418 s⁻¹"
>>> recorded_measurement("C11U G40A")
"8.42e-05 s⁻¹"
>>> recorded_measurement("U65G C68U")
"0.000304 s⁻¹"
>>> recorded_measurement("A12G A14C A48U")
"< 1e-05 s⁻¹"
>>> recorded_measurement("G40U G63A")
"< 1e-05 s⁻¹"
>>> recorded_measurement("G41U A53G")
"0.00133 s⁻¹"
>>> recorded_measurement("C16G U65A")
"0.000107 s⁻¹"
>>> recorded_measurement("A48C G51U")
"< 1e-05 s⁻¹"
>>> recorded_measurement("C11G G44U U46G U47A G59A A64U C67A")
"< 1e-05 s⁻¹"
>>> recorded_measurement("G38C U45A C70G")
"< 1e-05 s⁻¹"
>>> recorded_measurement("A36C G37A U46A G66U")
"< 1e-05 s⁻¹"
>>> recorded_measurement("G35C G38A A64G")
"< 1e-05 s⁻¹"
>>> recorded_measurement("A12U A53U")
"0.0159 s⁻¹"
>>> recorded_measurement("G35C C67G")
"< 1e-05 s⁻¹"
>>> recorded_measurement("C11G A36G G40C")
"< 1e-05 s⁻¹"
>>> recorded_measurement("A6U A39C U56C C67G")
"< 1e-05 s⁻¹"
>>> recorded_measurement("A6U A64G")
"7.26e-05 s⁻¹"
>>> recorded_measurement("C61G G62U")
"< 1e-05 s⁻¹"
>>> recorded_measurement("C10G A12C G13A A14G A39U C70G")
"< 1e-05 s⁻¹"
>>> recorded_measurement("C8U C10U C70G")
"0.000103 s⁻¹"
>>> recorded_measurement("G44A G62A")
"< 1e-05 s⁻¹"
>>> recorded_measurement("A12G U45C C50U")
"< 1e-05 s⁻¹"
